Tested on: liver cancer cells HepG2
Assay type: cell-based, human
SETUP_CONDITIONS: 48 h
Bridges are numbered along the chain shown (N, C = ends). Roman numbers before positions name the chains, in order. [ ]: non-standard residue; d: D form.
PARAMETER: IC50 (µM)
# value in µM; strip the unit string

// query IC50 value for entry I: H-FLSGIVGML[dA]KLFKK-NH2 / II: H-FLSGIVGML[dA]KLF / III: H-FLSGIVGML[dA]KLF (amide I:14-III:C, I:15-II:C) [[G10a]3-SHa] 5.49

---

Test system: human lung fibroblasts IMR-90
Format: cell-based
SETUP_CONDITIONS: 48 h
Bridges are numbered along the chain shown (N, C = ends). Roman numbers before positions name the chains, in order. [ ]: non-standard residue; d: D form.
PARAMETER: IC50

// query IC50 value for entry I: H-FLSGIVGML[dA]KLFKK-NH2 / II: H-FLSGIVGML[dA]KLF / III: H-FLSGIVGML[dA]KLF (amide I:14-III:C, I:15-II:C) [[G10a]3-SHa] 13.9 µM
